experiment: in vitro; details: human, CC50, uninfected A549 cells, CellTiter-Glo
Endpoint Name: CC50

Molecule | Endpoint Name | Measured
O=C1c2c(O)c(=O)ccn2N2CN1CC[C@H]1C[C@H]1COc1cccc3c1C2c1ccccc1SC3 (single isomer, unassigned) [Compound 144BB] | CC50 | > 4000 nM
O=C1c2c(O)c(=O)ccn2N2CN1C/C=C\COc1cc(F)c(F)c3c1[C@@H]2c1ccccc1SC3 (single isomer, unassigned) [Compound 140C] | CC50 | > 10000 nM
O=C1c2c(O)c(=O)ccn2N2CN1C[C@H]1C[C@@H]1COc1c(ccc(F)c1F)[C@H]2c1ccccc1 (single isomer, unassigned) [Compound 139BA] | CC50 | > 100 nM
O=C1c2c(O)c(=O)ccn2N2CN1C1(/C=C/COc3c(F)cccc3[C@@H]2c2ccccc2)CCC1 (single isomer, unassigned) [Compound 145B] | CC50 | > 10000 nM
O=C1c2c(O)c(=O)ccn2N2CN1CC/C=C\c1ccccc1C2c1ccccc1 (centres unmarked) [Compound 54] | CC50 | > 20000 nM
CC[C@@H]1/C=C\COc2cc(F)c(F)c3c2[C@@H](c2ccccc2SC3)N2CN1C(=O)c1c(O)c(=O)ccn12 (single isomer, unassigned) [Compound 126BB] | CC50 | > 200 nM
O=C1c2c(O)c(=O)ccn2N2CN1C[C@H]1C[C@@H](COc3cccc4c3[C@@H]2c2ccccc2SC4)C1 (single isomer, unassigned) [Compound 161A] | CC50 | > 100 nM
Cc1ccc2c(c1F)OC/C=C\CN1CN([C@@H]2c2ccccc2)n2ccc(=O)c(O)c2C1=O (single isomer, unassigned) [Compound 135A] | CC50 | > 200 nM
O=C1c2c(O)c(=O)ccn2N2CN1C1(/C=C/COc3ccccc3[C@H]2c2ccccc2)CC1 [Compound 79B] | CC50 | > 1000 nM
O=C1c2c(O)c(=O)ccn2N2CN1C/C=C\COc1c(ccc(F)c1F)[C@@H]2c1ccccc1C1CC1 (single isomer, unassigned) [Compound 136B] | CC50 | > 200 nM
CC(C)[C@H]1/C=C/COc2c(F)cccc2[C@@H](c2ccccc2)N2CN1C(=O)c1c(O)c(=O)ccn12 (single isomer, unassigned) [Compound 124AA] | CC50 | > 200 nM

====

experiment: in vitro; details: human, CC50, uninfected A549 cells, CellTiter-Glo

Compound | CC50
O=C1c2c(O)c(=O)ccn2N2CN1C[C@@H]1C[C@H]1COc1c(F)cccc1[C@@H]2c1ccccc1 (single isomer, unassigned) [Compound 125BA] | > 200 nM
CC(C)[C@@H]1/C=C/COc2c(ccc(F)c2F)[C@H](c2ccccc2)N2CN1C(=O)c1c(O)c(=O)ccn12 (single isomer, unassigned) [Compound 128BA] | > 200 nM
CC[C@@H]1C/C=C/COc2c(F)cccc2[C@@H](c2ccccc2)N2CN1C(=O)c1c(O)c(=O)ccn12 (single isomer, unassigned) [Compound 105AB] | > 200 nM
O=C1c2c(O)c(=O)ccn2N2CN1CCCCCCc1ccccc1C2c1ccccn1 (centres unmarked) | > 2000 nM
O=C1c2c(O)c(=O)ccn2N2CN1C1(/C=C\COc3cc(F)c(F)c4c3[C@H]2c2ccccc2SC4)CC1 (single isomer, unassigned) [Compound 108D] | > 200 nM
O=C1c2c(O)c(=O)ccn2N2CN1C/C=C\COc1c(F)cccc1[C@@H]2c1cccc(F)c1 (single isomer, unassigned) [Compound 59B] | > 2000 nM
O=C1c2c(O)c(=O)ccn2N2CN1C1(/C=C/COc3cc(F)c(F)c4c3[C@@H]2c2ccccc2SC4)CC1 (single isomer, unassigned) [Compound 108A] | 22600 nM
O=C1c2c(O)c(=O)ccn2N2CN1CC/C=C\COc1ccc(F)c3c1[C@H]2c1ccccc1SC3 (single isomer, unassigned) [Compound 93B] | > 200 nM
